Target: PI3K gamma (Homo sapiens)
Construct: His (N); host or cells: SF9 cells (baculovirus)
Sequence (P48736 whole entry): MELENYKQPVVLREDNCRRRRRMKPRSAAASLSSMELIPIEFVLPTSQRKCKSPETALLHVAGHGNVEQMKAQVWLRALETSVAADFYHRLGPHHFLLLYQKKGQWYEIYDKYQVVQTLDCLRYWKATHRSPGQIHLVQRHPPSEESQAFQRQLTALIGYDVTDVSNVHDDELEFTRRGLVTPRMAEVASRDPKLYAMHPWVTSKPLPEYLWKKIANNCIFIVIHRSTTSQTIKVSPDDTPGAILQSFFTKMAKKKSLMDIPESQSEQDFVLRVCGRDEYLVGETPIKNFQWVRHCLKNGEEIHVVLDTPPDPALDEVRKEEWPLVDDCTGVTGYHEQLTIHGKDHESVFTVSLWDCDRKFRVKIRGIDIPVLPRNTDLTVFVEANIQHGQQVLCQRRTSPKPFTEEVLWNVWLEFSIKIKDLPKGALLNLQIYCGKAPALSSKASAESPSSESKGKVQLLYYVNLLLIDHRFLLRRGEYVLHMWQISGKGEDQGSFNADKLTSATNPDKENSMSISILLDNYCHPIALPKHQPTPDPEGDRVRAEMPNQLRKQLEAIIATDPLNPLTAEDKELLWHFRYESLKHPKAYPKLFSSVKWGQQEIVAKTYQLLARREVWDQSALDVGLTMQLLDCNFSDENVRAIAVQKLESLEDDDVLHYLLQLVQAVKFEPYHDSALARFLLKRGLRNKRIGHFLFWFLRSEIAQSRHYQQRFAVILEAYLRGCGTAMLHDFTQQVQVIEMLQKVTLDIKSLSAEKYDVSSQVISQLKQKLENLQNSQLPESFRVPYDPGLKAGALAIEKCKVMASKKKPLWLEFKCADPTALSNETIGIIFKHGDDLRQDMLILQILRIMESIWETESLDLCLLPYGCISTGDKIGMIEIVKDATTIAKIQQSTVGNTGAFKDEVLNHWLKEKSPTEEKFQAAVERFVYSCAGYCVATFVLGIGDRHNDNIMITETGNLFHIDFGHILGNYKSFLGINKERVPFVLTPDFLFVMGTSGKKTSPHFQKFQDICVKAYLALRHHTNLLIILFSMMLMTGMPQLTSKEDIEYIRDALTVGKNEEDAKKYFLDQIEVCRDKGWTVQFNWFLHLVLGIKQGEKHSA
Assay: Human PI3K gamma enzyme assay (HTRF)
Type: biochemical
Conditions: concentration not given; b1433 gives 1.0 μM for PI3K δ and γ; read-out: p110 gamma Percent Inhibition
Attribute Measured: inhibition at 1 µM (%)

Some solved entries appear below for comparison.
N#Cc1c(N2CCOCC2)sc(C(=O)O)c1Cc1ccc2c(c1)CCCC2	37
N#Cc1c(N2CCOCC2)sc(C(=O)O)c1Cc1cc(F)c(Cl)cc1F	46

I. OC(c1cc(Br)cs1)c1cc(-c2ccncc2)sc1-c1nnc[nH]1 (stereo not drawn)
II. N#Cc1c(N2CCOCC2)sc(C(N)=O)c1C(F)(F)c1ccc2ccccc2c1
Request: Of I versus II , which is the one with smaller reported inhibition at 1 µM? I would appreciate it if you answered with the label of your choice.
Response: II

1. N#Cc1c(N2CCOCC2)sc(C(=O)O)c1Cc1cc2ccccc2cc1F
2. COc1cccc(C(O)c2cc(-c3ccncc3)sc2-c2nnc[nH]2)c1 (stereo not drawn)
Request: Out of 1 and 2 , name the one with the higher inhibition at 1 µM. I would appreciate it if you answered with the label of your choice.
Response: 1
(1: 76%, 2: 2%)

P. N#Cc1c(N2CCOCC2)sc(C(=O)O)c1C(F)(F)c1ccc2ccccc2c1
Q. N#Cc1c(N2CCOCC2)sc(C(=O)O)c1Cc1ccc2ccccc2c1F
Request: Out of P and Q , name the one with the higher inhibition at 1 µM. I would appreciate it if you answered with the label of your choice.
Response: Q
